Where these numbers come from: ChEMBL document CHEMBL3507680

Record form. Attribute: cytotoxicity at 70.5 h. Fill in for each entry.
experiment: Human HepG2 cell viability assay in 384 well format; format: toxicity, cell-based; set-up: dose 125 nL, time 70.5 hour; concentration not given beside the values; settings: HepG2 cells, read-out: Inhibition
The response must be a number in % with no trailing unit.

Problem: State its cytotoxicity at 70.5 h for this compound: Cc1c(CN2CCCC(c3[nH]ncc3S(C)(=O)=O)C2)cnn1C (centres undefined)
Result: -5.66

Problem: Specify reported cytotoxicity at 70.5 h for the compound shown: Cc1nc2n(n1)CC(NCc1nc(-c3ccccn3)no1)CC2 (centres undefined)
Result: -5.58

Problem: Supply measured cytotoxicity at 70.5 h of c1ccc(COc2cccc(CNC3CCc4ncnn4C3)c2)cc1 (centres undefined) in your reply.
Result: 19.6

Problem: Please look at this compound and report its cytotoxicity at 70.5 h: c1ccc(Cn2cccn2)c(CN2CCC3(CCCNC3)C2)c1 (centres undefined)
Result: 0.428

Problem: Provide only the value of recorded cytotoxicity at 70.5 h for N#Cc1ncn(CCC(=O)Nc2ccc(Cl)cc2F)n1
Result: -7.28

Problem: Identify cytotoxicity at 70.5 h associated with the compound Cc1cc(C)n(CC2CN(Cc3ccc4c(c3)OCCO4)CCO2)n1 (centres undefined)
Result: -3.91

Problem: Assign cytotoxicity at 70.5 h to the following record: Cc1ccccc1CN(CCN(C)C)Cc1ccc(C(=O)O)cc1
Result: -5.98

Problem: Note cytotoxicity at 70.5 h for the compound shown: CC(NC(=O)N1CCCN(Cc2cccs2)CC1)c1cccnc1 (centres undefined)
Result: -16.5

Problem: Output measured cytotoxicity at 70.5 h for this item: CCC(C)(C)c1cc(-c2c(C)nn(CCO)c2C)c(C#N)c(N)n1
Result: 12.5

Problem: For COCCn1cnc(-c2cc(C(=O)NC(C)C)c3ccccn23)c1 , write its cytotoxicity at 70.5 h.
Result: -6.05

Problem: Give me measured cytotoxicity at 70.5 h, please, for this compound: Cc1cccc(CN2C[C@@H]3OCCN(S(=O)(=O)N(C)C)[C@@H]3C2)n1
Result: -6.13

Problem: Answer with reported cytotoxicity at 70.5 h of CCC[C@H]1CN(CCS(C)(=O)=O)C[C@@H]1NC(=O)c1ccccn1
Result: -5.77

Problem: Determine its reported cytotoxicity at 70.5 h: O=c1[nH]c(NCc2cccc(OC(F)F)c2)nc2c1CCNC2
Result: -23.8

Problem: Respond only with cytotoxicity at 70.5 h recorded for COc1cc(NC(=O)NC2CCOCC2)ccc1N1CCOC1=O
Result: 6.14

Problem: Supply reported cytotoxicity at 70.5 h belonging to this compound: Cc1nc(C)n(C2CCCN(C(=O)Cc3cn4ccccc4n3)C2)n1 (centres undefined)
Result: 1.25

Problem: For the compound CCC(C)Oc1ccc(CNCCNS(C)(=O)=O)cc1Cl (centres undefined) , give its measured cytotoxicity at 70.5 h value.
Result: -0.417

Problem: Fill in reported cytotoxicity at 70.5 h for this entry: Cn1ccnc1C1CCN(C(=O)COCC(F)(F)C(F)F)CC1
Result: -14.1

Problem: Provide only the value of recorded cytotoxicity at 70.5 h for COc1cc2c(cc1CNC(=O)C(C)n1ccnc1C(C)C)CCC2 (centres undefined)
Result: -11.2

Problem: Note down cytotoxicity at 70.5 h recorded for Cc1ccsc1CN1CCc2c(nc(N3CCCCC3C)[nH]c2=O)C1 (centres undefined)
Result: -6.71

Problem: Look up cytotoxicity at 70.5 h of Cc1nc(Nc2nnc(C)s2)cc(C2CCCN2C2CCCC2)n1 (centres undefined) and report it.
Result: -5.26

Problem: Please supply the value of reported cytotoxicity at 70.5 h for the item O=C(NCCCO)NCCc1cc(F)ccc1F
Result: -0.605

Problem: Give a short answer stating reported cytotoxicity at 70.5 h for Cn1cc(NC(=O)CNC(=O)N2CCN(c3cccc(Cl)c3)CC2)cn1 .
Result: -4.74

Problem: Return value of cytotoxicity at 70.5 h for input Cc1ccc(C(=O)N2CCCC(C(=O)N3CCCCC3)C2)c(O)c1 (centres undefined) , no commentary.
Result: 13.3

Problem: Query cytotoxicity at 70.5 h for CN(Cc1ccoc1)C(=O)C1CCN(C(=O)C2CCCC2)CC1
Result: 27.9
